Target: T1, human NMUR1 (human, UniProt Q9HB89 1-426)
T1 sequence (looked up): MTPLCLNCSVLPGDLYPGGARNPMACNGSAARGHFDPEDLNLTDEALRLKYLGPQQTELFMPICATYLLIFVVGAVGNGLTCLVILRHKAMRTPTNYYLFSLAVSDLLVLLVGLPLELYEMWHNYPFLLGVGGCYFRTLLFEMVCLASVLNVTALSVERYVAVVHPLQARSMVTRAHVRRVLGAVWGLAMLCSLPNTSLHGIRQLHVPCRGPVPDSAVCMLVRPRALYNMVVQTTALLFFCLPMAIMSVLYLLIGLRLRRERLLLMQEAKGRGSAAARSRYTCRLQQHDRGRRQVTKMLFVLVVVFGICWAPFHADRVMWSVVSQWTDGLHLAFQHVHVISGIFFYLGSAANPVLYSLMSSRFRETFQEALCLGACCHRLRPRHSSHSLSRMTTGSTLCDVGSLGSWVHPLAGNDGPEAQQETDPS
Experiment: cell-based or functional assay
Starred links: 1 amine or outer side, 2 acyl side, 3 side chain; linkers in the order of their positions; H or OH if unused. Non-standard residues stand in square brackets, D forms with d. *: point of attachment. Ttds = 1-amino-4,7,10-trioxa-13-tridecanamine succinimic acid spacer, O=C(CCC(=O)[*:2])NCCCOCCOCCOCCCN[*:1]; (PEG)2 40 kDa = branched PEG of 40 kDa linked via the Cys side-chain thiol (code C2 = Cys(PEG)2 40 kDa); Succinimide(1-Et,3-yl) = CCN1C(=O)CC(*)C1=O
Catalogue of binders with associated % Activity (FLIPR)
In your response, the unit should come after the numeric value.

Ac-C(Succinimide(1-Et,3-yl))GYFLFRPRN-NH2 (SMILES CCN1C(=O)CC(SC[C@H](NC(C)=O)C(=O)NCC(=O)N[C@@H](Cc2ccc(O)cc2)C(=O)N[C@@H](Cc2ccccc2)C(=O)N[C@@H](CC(C)C)C(=O)N[C@@H](Cc2ccccc2)C(=O)N[C@@H](CCCNC(=N)N)C(=O)N2CCC[C@H]2C(=O)N[C@@H](CCCNC(=N)N)C(=O)N[C@@H](CC(N)=O)C(N)=O)C1=O) [NMU6] : 96.7%
Ac-C(PEG 20 kDa)C(PEG 20 kDa)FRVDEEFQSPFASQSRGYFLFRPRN-NH2 [NMU23] : 66.9%
Ac-C((PEG)2 40 kDa)[Ttds]FLFRPRN-NH2 [NMU16] : 74%

### Prompt Looking for the measured % Activity (FLIPR) of Ac-C(Succinimide(1-Et,3-yl))C(Succinimide(1-Et,3-yl))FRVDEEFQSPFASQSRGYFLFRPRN-NH2 [NMU22] , can you help?
### Response 95.6%
